# TEST_METHOD_NOTES: activity coefficient (dimensionless); of the first substance listed, at infinite dilution; xn = mol fraction of the nth substance listed
# MEASUREMENT_PARAMETERS: 328.15 K; 101.33 kPa; Liquid; Chromatography; x1 = 0
Class membership depends on activity coefficient alone; the intervals are class A: < 5; class B: ≥ 5 and < 60; class C: ≥ 60

                                    compound  label_class
 0  CC(C)=O [acetone] + C[n+]1ccn(CCCO)c1.N#CN=C=[N-]      class A
 1  COC(C)=O [methyl ethanoate] + C[N+]1(CCCO)CCOCC1.N#C[N-]C#N      class A
 2  C1CCOC1 [tetrahydrofuran] + C[N+]1(CCCO)CCOCC1.N#C[N-]C#N      class A
 3  CCOC(C)=O [ethyl acetate] + C[n+]1ccn(CCCO)c1.N#CN=C=[N-]      class B
 4  C1CCCCCCC1 [cyclooctane] + C[n+]1ccn(CCCO)c1.N#CN=C=[N-]      class C
 5  CCC(C)(C)OC [2-methoxy-2-methylbutane] + C[n+]1ccn(CCCO)c1.N#CN=C=[N-]      class B
 6  COC(C)=O [methyl ethanoate] + C[n+]1ccn(CCCO)c1.N#CN=C=[N-]      class A
 7  c1ccccc1 [benzene] + C[n+]1ccn(CCCO)c1.N#CN=C=[N-]      class A
 8  CCC(C)(C)OC [2-methoxy-2-methylbutane] + C[N+]1(CCCO)CCOCC1.N#C[N-]C#N      class C
 9  C#CCCC [1-pentyne] + C[N+]1(CCCO)CCOCC1.N#C[N-]C#N      class B
10  CCC(=O)CC [pentan-3-one] + C[n+]1ccn(CCCO)c1.N#CN=C=[N-]      class B
11  CCOC(C)(C)C [2-ethoxy-2-methylpropane] + C[n+]1ccn(CCCO)c1.N#CN=C=[N-]      class C
12  C=C(C)c1ccccc1 [(1-methylethenyl)benzene] + C[n+]1ccn(CCCO)c1.N#CN=C=[N-]      class B
13  C1CCCCCC1 [cycloheptane] + C[N+]1(CCCO)CCOCC1.N#C[N-]C#N      class C
14  Cc1cccc(C)c1 [1,3-dimethylbenzene] + C[n+]1ccn(CCCO)c1.N#CN=C=[N-]      class B
15  C#CCCC [1-pentyne] + C[n+]1ccn(CCCO)c1.N#CN=C=[N-]      class B
16  CCCOCCC [dipropyl ether] + C[n+]1ccn(CCCO)c1.N#CN=C=[N-]      class C
17  C1CCCCC1 [cyclohexane] + C[N+]1(CCCO)CCOCC1.N#C[N-]C#N      class C
18  CC(C)(C)O [2-methylpropan-2-ol] + C[n+]1ccn(CCCO)c1.N#CN=C=[N-]      class A
19  CCCC=O [butanal] + C[n+]1ccn(CCCO)c1.N#CN=C=[N-]      class A
20  Cc1ccccc1 [toluene] + C[n+]1ccn(CCCO)c1.N#CN=C=[N-]      class B
21  c1ccsc1 [thiophene] + C[N+]1(CCCO)CCOCC1.N#C[N-]C#N      class A
22  CC(C)CO [2-methyl-1-propanol] + C[n+]1ccn(CCCO)c1.N#CN=C=[N-]      class A
23  CCCOCCC [dipropyl ether] + C[N+]1(CCCO)CCOCC1.N#C[N-]C#N      class C
24  C1CCCCCC1 [cycloheptane] + C[n+]1ccn(CCCO)c1.N#CN=C=[N-]      class C
25  C1=CCCCC1 [cyclohexene] + C[N+]1(CCCO)CCOCC1.N#C[N-]C#N      class C
26  Cc1ccc(C)cc1 [1,4-dimethylbenzene] + C[n+]1ccn(CCCO)c1.N#CN=C=[N-]      class B
27  Cc1cccc(C)c1 [1,3-dimethylbenzene] + C[N+]1(CCCO)CCOCC1.N#C[N-]C#N      class B
28  C=CCCCCCC [oct-1-ene] + C[n+]1ccn(CCCO)c1.N#CN=C=[N-]      class C
